Below, each entry is listed with its recorded log10 IC50.
Target: Fibroblast growth factor receptor 3 (Homo sapiens)
Assay: Enzyme Assay
Heads up, the numbers here are log10 of IC50 in nM units.

Below are worked cases with known answers.
C=CC(=O)N[C@H]1CC[C@H](C(=O)N2CCC(n3cc(-c4cc(OC)c5c(C#N)cnn5c4)cn3)CC2)C1 [US12180207, Example 35]; 1.36
C=CS(=O)(=O)N[C@H]1CC[C@H](C(=O)N2CCC(n3cc(-c4cc(OC)c5c(C#N)cnn5c4)cn3)CC2)CC1 [US12180207, Example 187]; 0.60
COc1cc(-c2cnn(C3CN(C(=O)C4CN(C(=O)/C=C/CN(C)C)C4)C3)c2)cn2ncc(C#N)c12 [US12180207, Example 150]; 1.34

Look up log10 IC50 for this compound: C=C(F)C(=O)N1CC(C(=O)N2CCC(n3cc(-c4cc(OC)c5c(C#N)cnn5c4)cn3)CC2)C1 [US12180207, Example 140]
0.85

Look up log10 IC50 for this compound: COc1cc(-c2cnn(C3CCN(C(=O)/C=C/CN(C)C)CC3)c2)cn2ncc(C#N)c12 [US12180207, Example 144]
1.38

Look up log10 IC50 for this compound: C=CC(=O)N[C@H]1CCC[C@@H](C(=O)N2CCC(n3cc(-c4cc(OC)c5c(C#N)cnn5c4)cn3)CC2)C1 [US12180207, Example 19]
1.04

Look up log10 IC50 for this compound: C=CC(=O)N[C@@H]1CC[C@H](C(=O)N2CCC(n3cc(-c4cc(OC)c5c(C#N)cnn5c4)cn3)CC2)C1 [US12180207, Example 32]
1.49

Look up log10 IC50 for this compound: C=CC(=O)N[C@H]1CC[C@@H](C(=O)N2CCC(n3cc(-c4cc(OC)c5c(C#N)cnn5c4)cn3)CC2)C1 [US12180207, Example 33]
0.48

* * *

Below, each entry is listed with its recorded pIC50.
Target: Fibroblast growth factor receptor 3 (Homo sapiens, UniProt P22607)
Sequence (P22607 whole entry): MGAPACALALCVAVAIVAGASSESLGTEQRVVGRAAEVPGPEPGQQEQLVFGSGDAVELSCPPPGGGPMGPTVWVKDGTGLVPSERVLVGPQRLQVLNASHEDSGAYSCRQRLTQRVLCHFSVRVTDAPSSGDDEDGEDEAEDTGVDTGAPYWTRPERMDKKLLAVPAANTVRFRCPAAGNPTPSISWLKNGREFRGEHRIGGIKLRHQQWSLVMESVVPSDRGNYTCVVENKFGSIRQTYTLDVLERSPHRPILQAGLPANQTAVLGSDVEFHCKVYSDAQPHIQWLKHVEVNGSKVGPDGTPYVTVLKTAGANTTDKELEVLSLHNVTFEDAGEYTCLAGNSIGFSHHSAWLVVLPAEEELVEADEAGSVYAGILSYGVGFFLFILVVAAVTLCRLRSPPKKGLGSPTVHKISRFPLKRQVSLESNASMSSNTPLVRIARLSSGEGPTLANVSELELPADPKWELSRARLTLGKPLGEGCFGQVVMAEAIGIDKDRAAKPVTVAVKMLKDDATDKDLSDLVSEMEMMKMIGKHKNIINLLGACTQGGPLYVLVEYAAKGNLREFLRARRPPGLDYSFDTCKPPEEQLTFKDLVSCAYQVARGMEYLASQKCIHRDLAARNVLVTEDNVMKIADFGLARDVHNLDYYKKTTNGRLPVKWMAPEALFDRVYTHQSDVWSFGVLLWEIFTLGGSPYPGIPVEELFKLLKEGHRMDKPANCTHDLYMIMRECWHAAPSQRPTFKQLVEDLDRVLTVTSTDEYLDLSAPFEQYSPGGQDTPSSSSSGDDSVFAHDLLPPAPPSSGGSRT
Assay: Enzyme Assay
Entry type: numeric. Quantity: pIC50, the -log10 of concentration in molar units.

Below are worked cases with known answers.
COc1cc(-c2cnn(C3CCN(C(=O)C4CN(C(=O)/C=C/CF)C4)CC3)c2)cn2ncc(C#N)c12 [US12180207, Example 142]; 8.30
C=CC(=O)N[C@H]1CC[C@H](C(=O)N2CC(n3cc(-c4cc(OC)c5c(C#N)cnn5c4)cn3)C2)C1 [US12180207, Example 77]; 6.93

Look up pIC50 for this compound: COc1cc(-c2cnn(C3CN(CC4CN(C(=O)/C=C/CN(C)C)C4)C3)c2)cn2ncc(C#N)c12 [US12180207, Example 148]
7.85

Look up pIC50 for this compound: C=CC(=O)Nc1ccc(S(=O)(=O)N2CCC(n3cc(-c4cc(OC)c5c(C#N)cnn5c4)cn3)CC2)cc1 [US12180207, Example 49]
7.89

Look up pIC50 for this compound: C=CC(=O)N[C@@H]1CC[C@@H](C(=O)N2CCC(n3cc(-c4cc(OC)c5c(C#N)cnn5c4)cn3)CC2)C1 [US12180207, Example 34]
7.44

Look up pIC50 for this compound: C=CS(=O)(=O)Nc1ccc(C(=O)N2CCC(n3cc(-c4cc(OC)c5c(C#N)cnn5c4)cn3)CC2)cc1 [US12180207, Example 196]
8.52
